- assay_target: Histone deacetylase 5 (Homo sapiens)
- Sequence (Q9UQL6 whole entry): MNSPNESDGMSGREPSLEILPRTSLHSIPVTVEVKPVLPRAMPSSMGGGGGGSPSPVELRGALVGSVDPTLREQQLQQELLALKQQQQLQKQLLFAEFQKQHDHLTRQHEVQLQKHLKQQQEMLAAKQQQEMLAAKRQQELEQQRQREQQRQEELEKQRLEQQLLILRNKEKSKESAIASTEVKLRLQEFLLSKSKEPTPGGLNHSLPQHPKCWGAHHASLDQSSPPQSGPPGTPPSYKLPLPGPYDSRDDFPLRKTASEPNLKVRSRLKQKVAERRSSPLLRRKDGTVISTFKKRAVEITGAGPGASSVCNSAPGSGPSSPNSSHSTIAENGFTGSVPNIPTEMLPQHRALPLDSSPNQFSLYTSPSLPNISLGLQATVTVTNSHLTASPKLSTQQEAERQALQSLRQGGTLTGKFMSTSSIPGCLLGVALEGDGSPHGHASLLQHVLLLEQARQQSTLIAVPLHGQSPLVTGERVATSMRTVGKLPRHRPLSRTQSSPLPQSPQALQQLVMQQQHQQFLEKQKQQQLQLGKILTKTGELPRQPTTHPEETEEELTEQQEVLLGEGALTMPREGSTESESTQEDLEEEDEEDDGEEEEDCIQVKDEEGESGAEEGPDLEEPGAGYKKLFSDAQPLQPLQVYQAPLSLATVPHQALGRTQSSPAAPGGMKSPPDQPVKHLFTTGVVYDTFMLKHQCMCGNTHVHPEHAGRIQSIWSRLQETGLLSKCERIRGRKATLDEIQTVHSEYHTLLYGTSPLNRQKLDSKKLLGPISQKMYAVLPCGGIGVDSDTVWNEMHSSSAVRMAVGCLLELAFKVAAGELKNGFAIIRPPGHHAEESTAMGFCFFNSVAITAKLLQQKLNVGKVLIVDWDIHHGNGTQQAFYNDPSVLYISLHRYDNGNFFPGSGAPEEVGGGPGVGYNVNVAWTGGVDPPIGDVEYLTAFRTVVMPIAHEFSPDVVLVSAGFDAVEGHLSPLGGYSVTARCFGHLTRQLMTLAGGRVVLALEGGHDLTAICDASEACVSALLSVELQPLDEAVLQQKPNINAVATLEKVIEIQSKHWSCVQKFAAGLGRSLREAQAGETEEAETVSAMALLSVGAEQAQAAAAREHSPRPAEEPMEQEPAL
readout_label: IC50

## Task Look up IC50 with Histone deacetylase 5 (Homo sapiens) for this compound: "CC#CCOc1ccc(C(=O)N[C@H](C(=O)NO)C(C)(C)N)cc1"
## Result > 30 µM

* * *

- assay: Cytotoxicity against human K562 cells assessed as reduction in cell viability after 72 hrs by WST1 assay
- Type: cell-based
// CC50 at 72 h lookup, one value per entry
# value in µM; strip the unit string

INSERT INTO measurements (smiles_record, value_observed) VALUES
  ('CCCCc1ccc(C(=O)N[C@H](C(=O)NO)[C@@H](C)N)cc1', 42.3),
  ('CCc1ccc(-c2ccc(C(=O)N[C@H](C(=O)NO)[C@@H](C)N)cc2)cc1', 7.37);

Field: next compound
## Task Recorded CC50 at 72 h of "C[C@@H](N)[C@H](NC(=O)c1ccc(C#Cc2ccccc2)cc1)C(=O)NO" , please.
## Result 29.5

* * *

- assay_target: Histone deacetylase 3 (Homo sapiens)
- Sequence (O15379 whole entry): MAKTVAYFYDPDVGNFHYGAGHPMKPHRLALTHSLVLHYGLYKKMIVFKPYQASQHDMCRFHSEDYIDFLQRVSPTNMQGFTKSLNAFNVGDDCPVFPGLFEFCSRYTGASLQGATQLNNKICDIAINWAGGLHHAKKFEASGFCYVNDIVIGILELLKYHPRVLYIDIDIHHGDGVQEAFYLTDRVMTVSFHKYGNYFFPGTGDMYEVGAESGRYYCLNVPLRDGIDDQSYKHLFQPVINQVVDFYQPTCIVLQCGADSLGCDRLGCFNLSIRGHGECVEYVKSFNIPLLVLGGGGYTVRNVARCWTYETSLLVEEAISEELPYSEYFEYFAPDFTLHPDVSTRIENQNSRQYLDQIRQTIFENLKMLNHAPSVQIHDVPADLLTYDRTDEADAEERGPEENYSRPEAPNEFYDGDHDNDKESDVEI
pIC50: −log10 of the molar value.
readout_label: pIC50

## Task Which pIC50 is reported for this compound? "CC#CCOc1ccc(C(=O)N[C@H](C(=O)NO)C(C)(C)N)cc1"
## Result < 4.52

* * *

- assay_target: UniProt Q92769
- Sequence (Q92769 whole entry): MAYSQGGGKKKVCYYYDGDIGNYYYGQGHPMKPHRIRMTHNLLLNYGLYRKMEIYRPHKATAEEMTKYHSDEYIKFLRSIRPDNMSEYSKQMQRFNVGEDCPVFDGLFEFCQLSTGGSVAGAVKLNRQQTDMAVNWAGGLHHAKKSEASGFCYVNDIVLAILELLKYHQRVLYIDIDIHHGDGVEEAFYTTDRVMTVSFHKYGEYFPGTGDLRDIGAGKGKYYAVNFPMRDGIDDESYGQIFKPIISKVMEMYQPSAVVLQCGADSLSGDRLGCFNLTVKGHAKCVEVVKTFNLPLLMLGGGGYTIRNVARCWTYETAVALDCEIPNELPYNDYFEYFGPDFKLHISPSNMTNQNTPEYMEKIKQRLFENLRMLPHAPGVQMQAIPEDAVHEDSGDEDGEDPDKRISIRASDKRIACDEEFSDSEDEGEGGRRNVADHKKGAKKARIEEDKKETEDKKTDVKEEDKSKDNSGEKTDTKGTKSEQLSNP
readout_label: IC50

## Task Recorded IC50 for "CC#CCOc1ccc(C(=O)N[C@H](C(=O)NO)C(C)(C)N)cc1" , please?
## Result > 30 µM

* * *

- assay_target: UDP-3-O-acyl-N-acetylglucosamine deacetylase (Pseudomonas aeruginosa (strain ATCC 15692 / PAO1 / 1C / PRS 101 / LMG12228), UniProt P47205)
- Sequence (P47205 whole entry): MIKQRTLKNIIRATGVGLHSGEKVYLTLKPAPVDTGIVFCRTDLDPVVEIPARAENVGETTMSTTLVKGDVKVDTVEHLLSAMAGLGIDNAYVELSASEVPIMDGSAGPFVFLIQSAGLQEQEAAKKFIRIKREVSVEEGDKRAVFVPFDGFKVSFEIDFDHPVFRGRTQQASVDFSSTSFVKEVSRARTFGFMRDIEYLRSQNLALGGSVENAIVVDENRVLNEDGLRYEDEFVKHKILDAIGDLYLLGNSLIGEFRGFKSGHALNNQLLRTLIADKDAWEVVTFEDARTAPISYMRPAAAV
- assay: Inhibition of Pseudomonas aeruginosa LpxC using UDP-3-O-(R-hydroxydecanoyl)-N-acetylglucosamine as substrate preincubated for 30 mins followed by substrate addition measured after 20 mins by LC-MS/MS analysis
readout_label: pIC50
Schema: pIC50 number; meaning minus log10 of the concentration expressed in molar units.

Previously resolved entries follow.
INSERT INTO assay_data (smiles_record, value_observed) VALUES
  ('CC#CCOc1ccc(C(=O)N[C@H](C(=O)NO)[C@@H](C)N)cc1', 7.71),
  ('CC#CCOc1ccc(C(=O)N[C@H](C(=O)NO)[C@H](C)N)cc1', 7.79),
  ('C[C@@H](N)[C@H](NC(=O)COc1ccc(N2CCCC2=O)cc1)C(=O)NO', 6.47),
  ('C[C@@H](N)[C@H](NC(=O)[C@H]1CC[C@H](C(C)(C)C)CC1)C(=O)NO', 6.93);

## Task So what's the measured pIC50 for this one? "CC#CCOc1ccc(C(=O)N[C@H](C(=O)NO)[C@H](N)C2CC2)cc1"
## Result 6.44

* * *

- assay: Cytotoxicity against human HepG2 cells assessed as reduction in cell viability after 72 hrs by WST1 assay
- Type: cell-based
// reported CC50 at 72 h per item

INSERT INTO assay_data (smiles_record, value_observed) VALUES
  ('CCCCc1ccc(C(=O)N[C@H](C(=O)NO)[C@@H](C)N)cc1', '125 µM');

## Task I am curious: what CC50 at 72 h value has been reported for "CC#CCOc1ccc(C(=O)N[C@H](C(=O)NO)[C@@H](C)N)cc1" ?
## Result > 419 µM

## Task Would you mind doing "CC#CCOc1ccc(C(=O)N[C@H](C(=O)NO)C(C)(C)N)cc1" as well?
## Result > 295 µM

## Task Ok, now "CCc1ccc(-c2ccc(C(=O)N[C@H](C(=O)NO)[C@@H](C)N)cc2)cc1"
## Result 12.8 µM
